measure-name: melting point (°C)
Kindly answer with a numeric value in °C, unit omitted.

molecule: O=C(N[C@H]1CC[C@H](CCN2CCC(c3cccc4c3CCO4)CC2)CC1)c1ccc2c(c1)OCO2
recorded-result: 233

We now examine a further molecule.
Any idea what melting point was measured for CN(C)Cc1ccc(CNC(=O)C2Cc3ccccc3N2S(=O)(=O)c2ccc(-c3cccc(C(F)(F)F)c3)cc2)cc1 (stereo not given) ? 70

* * *

melting point by entry:

These recorded examples may help you get a feel for the data.
molecule: O=C1NC(Cc2ccc([N+](=O)[O-])c(OCc3ccccc3)c2)C(=O)Nc2ccccc21 (centres undefined)
melting point: 243 to 245 °C

molecule: O=C(O)c1cccc(-c2cc(-c3ccc(C(F)(F)F)cc3)no2)c1
melting point: 272 to 273 °C

molecule: Cc1cc(Br)ccc1-n1c(CF)nc2ccc(N)cc2c1=O
melting point: 194 to 196 °C

molecule: CCCCC(=O)N(Cc1ccc(-c2ccccc2-c2nnnn2C(c2ccccc2)(c2ccccc2)c2ccccc2)cc1)C(C(=O)O)C(C)C (centres undefined)
melting point: 170 °C

molecule: COC(=O)c1cc([N+](=O)[O-])c(C)s1
melting point: 81 °C

Any idea what melting point was measured for COc1ccc(S(=O)(=O)n2c(CCCC(=O)O)cc3nc(Cl)ccc32)cc1 ? 189 °C

How about Nc1cc2c(cc1[N+](=O)[O-])OCC2 ? 152 °C

How about COc1ccc(Nc2nc(-c3ccncc3)nc3ccccc23)cc1Cl ? > 220 °C

How about CC(C)(C)c1cc(-c2ccc(F)cc2)cc(C(C)(C)C)c1O ? 97 to 99 °C

Each recorded value in this set is attributed to a melting point compilation (Tetko et al.; mined from patent text by program, amines drawn as free bases though some values may be those of a salt).
